Below, each entry is listed alongside its reported IC50.
Target: NLRP3 (Homo sapiens, UniProt Q96P20)
Sequence (Q96P20 whole entry): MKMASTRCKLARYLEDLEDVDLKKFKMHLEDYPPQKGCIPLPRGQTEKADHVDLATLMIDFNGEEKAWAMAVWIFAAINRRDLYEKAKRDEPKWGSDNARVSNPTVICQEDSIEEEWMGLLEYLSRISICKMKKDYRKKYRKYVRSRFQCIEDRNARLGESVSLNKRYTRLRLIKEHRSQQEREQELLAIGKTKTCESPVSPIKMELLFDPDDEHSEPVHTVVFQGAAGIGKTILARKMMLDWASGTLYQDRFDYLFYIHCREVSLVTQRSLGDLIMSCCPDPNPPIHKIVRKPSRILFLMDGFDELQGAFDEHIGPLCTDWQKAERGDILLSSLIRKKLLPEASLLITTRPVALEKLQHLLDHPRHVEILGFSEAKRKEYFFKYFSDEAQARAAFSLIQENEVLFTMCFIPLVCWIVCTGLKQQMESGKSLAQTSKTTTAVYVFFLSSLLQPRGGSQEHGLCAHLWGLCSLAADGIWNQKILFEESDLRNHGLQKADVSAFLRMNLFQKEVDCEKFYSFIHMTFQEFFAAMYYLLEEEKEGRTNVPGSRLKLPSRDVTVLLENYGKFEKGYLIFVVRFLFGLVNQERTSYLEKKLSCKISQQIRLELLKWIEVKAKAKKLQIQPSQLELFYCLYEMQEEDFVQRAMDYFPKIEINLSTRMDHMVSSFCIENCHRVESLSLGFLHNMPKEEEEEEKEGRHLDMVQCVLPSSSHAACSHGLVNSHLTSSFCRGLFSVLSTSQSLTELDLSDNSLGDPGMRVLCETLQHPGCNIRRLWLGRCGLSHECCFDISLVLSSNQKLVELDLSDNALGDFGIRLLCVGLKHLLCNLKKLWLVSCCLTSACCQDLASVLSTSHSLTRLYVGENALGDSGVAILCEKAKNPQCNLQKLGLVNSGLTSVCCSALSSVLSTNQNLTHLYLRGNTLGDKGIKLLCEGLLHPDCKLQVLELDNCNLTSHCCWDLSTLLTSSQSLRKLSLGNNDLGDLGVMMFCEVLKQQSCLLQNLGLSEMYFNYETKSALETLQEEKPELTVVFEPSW
Assay: Human whole blood IL-1β release assay
Assay type: cell-based
Design: Plate out 80 μl of whole blood containing 1 μg/ml of LPS in 96-well, clear bottom cell culture plate; from tissue; host or cells: human whole blood from healthy donors
Conditions: LPS 1 μg/ml, compound 3 hrs, nigericin 10 μM 1 hr, IL-1β by AlphaLisa, read-out: HWB IC50
Protocol: For systemic delivery, the ability to inhibit NLRP3 when the compounds are present within the bloodstream is of great importance. For this reason, the NLRP3 inhibitory activity of a number of compounds in human whole blood was investigated in accordance with the following protocol. Human whole blood in Li-heparin tubes was obtained from healthy donors from a volunteer donor panel. • 1. […] IL-1β was measured according to the manufacturer protocol (Perkin Elmer-AlphaLisa IL-1 Kit AL220F-5000) • 8. […]
Structures can show the parent of a compound that is named as a salt.

[
  {
    "Compound": "CN(C)Cc1cc2nn1CCCCCOc1cc(ccn1)-c1ccc3c(c1NC(=O)NS2(=O)=O)CCC3 [Example 17]",
    "Observed": "0.5 to 1 µM"
  },
  {
    "Compound": "O=C1Nc2c(ccc3c2CCC3)-c2ccnc(c2)OCC2(CCOCC2)n2ccc(n2)S(=O)(=O)N1 [Example 39]",
    "Observed": "0.1 to 0.5 µM"
  },
  {
    "Compound": "O=C1Nc2c(ccc3c2CCC3)-c2ccnc(c2)OCCCn2ccc(n2)S(=O)(=O)N1 [Example 7]",
    "Observed": "0.5 to 1 µM"
  },
  {
    "Compound": "Cc1cc2c(c3c1-c1ccnc(c1)OCC(C)(C)n1ccc(n1)S(=O)(=O)NC(=O)N3)CCO2 [Example 37, sodium salt]",
    "Observed": "≤ 0.1 µM"
  },
  {
    "Compound": "CC1(C)COCCOc2cc(ccn2)-c2ccc3c(c2NC(=O)NS(=O)(=O)c2ccn1n2)CCC3 [Example 12]",
    "Observed": "0.5 to 1 µM"
  }
]

From here, focus on the item given below.
Check the records and state IC50 for O=C1Nc2c(ccc3c2CCC3)-c2ccnc(c2)OC2CCC(C2)Cn2ccc(n2)S(=O)(=O)N1 (stereo not shown) [Example 46]
1 to 5 µM

---

This section presents compounds with their documented pIC50 values.
target: NLRP3 (Homo sapiens, UniProt Q96P20); assay: Human whole blood IL-1β release assay; assay type: cell-based; parameters: Plate out 80 μl of whole blood containing 1 μg/ml of LPS in 96-well, clear bottom cell culture plate; from tissue; host or cells: human whole blood from healthy donors; conditions: LPS 1 μg/ml, compound 3 hrs, nigericin 10 μM 1 hr, IL-1β by AlphaLisa, read-out: HWB IC50
pIC50: −log10 of the molar value. Where a name gives a salt, the structure may show the parent alone.

Tell me pIC50 reported for O=C1Nc2c(ccc3c2CCC3)-c2ccnc(c2)OCCc2cccc(c2)S(=O)(=O)N1 [Example 31, sodium salt]
6.30 to 7.00

Write down pIC50 measured for item Cc1cc2c(c3c1-c1ccnc(c1)OCCn1ccc(n1)S(=O)(=O)NC(=O)N3)CCC2 [Example 28, sodium salt]
6.30 to 7.00

For the compound O=C1Nc2c(ccc3c2CCC3)-c2ccnc(c2)OCCn2cc(F)c(n2)S(=O)(=O)N1 [Example 25] , give its measured pIC50 value.
≥ 7.00

Identify measured pIC50 corresponding to CC1(C)COc2cc(ccn2)-c2ccc3c(c2NC(=O)NS(=O)(=O)c2ccn1n2)CCC3 [Example 11]
6.30 to 7.00
